molecular target: SARS-CoV-2 spike protein on authentic virus, strain B.1.1.7 (SARS-CoV-2, UniProt P0DTC2 14-1273); assay: cell-based or functional assay
RESULT_TYPE: IC50 (ug/ml), FRNT

{"BINDER": "antibody 384, full-length IgG (antibody, V domains shown) VH: EVQLVESGGGLVKPGESLRLSCAASGFTFSDYYMTWIRQAPGKGLEWVSYIRSSGHTIYYADSVKGRFTISRDNAKNSLYLQMNSLRVEDTAVYYCARGGVLRFLEWPLNAFDIWGQGTMVTVSS VL: DIQLTQSPSSLSASVGDRVTITCRASQGISNYLAWYQQKPGKVPKLLIYAASTLQSGVPSRFSGSGSGTDFTLTISSLQPEDVATYYCQKYNNALGTFGQGTKVEIK", "TEST_VALUE": "0.005 µg/mL"}

Switching to the query record.
The measured IC50 (ug/ml), FRNT associated with antibody 158, full-length IgG (antibody, V domains shown, also called mAb 158; 158 IgG) VH: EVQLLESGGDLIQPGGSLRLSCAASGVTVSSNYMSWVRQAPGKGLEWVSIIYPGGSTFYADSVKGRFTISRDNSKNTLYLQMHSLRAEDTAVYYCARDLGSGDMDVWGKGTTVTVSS VL: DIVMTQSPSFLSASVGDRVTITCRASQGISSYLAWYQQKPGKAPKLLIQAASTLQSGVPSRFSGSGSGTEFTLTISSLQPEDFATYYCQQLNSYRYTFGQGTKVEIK reads 0.254 µg/mL

FYI, the data here is from patent US20240043507A1.
